B1: HDV Ribozyme (parent)
chain: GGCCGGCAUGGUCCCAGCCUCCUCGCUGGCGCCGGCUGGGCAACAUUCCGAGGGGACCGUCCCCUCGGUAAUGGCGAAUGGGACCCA

Variants of: B1
Experiment: self-cleavage, relative activity (ratio to wild type); higher = more cleavage; co-transcriptional
Experimental Readout: self-cleavage
Answer as a number with no unit attached.

Worked examples, 10 variants total:
{"Mutation": "C33A G81U", "self-cleavage": 0.0978}
{"Mutation": "G29C C33U", "self-cleavage": 0.0941}
{"Mutation": "G1A G52C", "self-cleavage": 0.237}
{"Mutation": "U60A G80A", "self-cleavage": 0.3}
{"Mutation": "U23A C32U", "self-cleavage": 0.929}
{"Mutation": "C62G U79C", "self-cleavage": 0.529}
{"Mutation": "C32U U46A", "self-cleavage": 0.573}
{"Mutation": "U46G G55U", "self-cleavage": 0.569}
{"Mutation": "C61G A71C", "self-cleavage": 0.787}
{"Mutation": "C64G G76A", "self-cleavage": 0.862}

Exercise: Record request: self-cleavage value, item G54A C58A
Solution: 0.773

Exercise: Record request: self-cleavage value, item A43G C75A
Solution: 0.172

Exercise: Record request: self-cleavage value, item G38U A56C
Solution: 0.266

Exercise: Record request: self-cleavage value, item U60A G74A
Solution: 0.422

Exercise: Record request: self-cleavage value, item C66A A77C
Solution: 0.237

Exercise: Record request: self-cleavage value, item U9C C33A
Solution: 0.489
